Where do the numbers come from? From paper PMC9182007.

Entries annotated with measured k IAM
Test: HPLC on immobilized artificial membrane column (HPLCIAM)
Format: physicochemical
Conditions: Table S5, retention factor, IAM column, phosphate buffer pH 7.4/acetonitrile 80:20
Write the number on its own, no unit after it.

Worked examples follow.
molecule | k IAM
CCOC(=O)C1=C(COCCN)NC(C)=C(C(=O)OC)C1c1ccccc1Cl (centres unmarked) | 98.90
CC(C)(O)c1ccccc1CC[C@@H](SCC1(CC(=O)O)CC1)c1cccc(/C=C/c2ccc3ccc(Cl)cc3n2)c1 | 99.10
CN1CCC(=C2c3ccccc3C=Cc3ccccc32)CC1 | 23.79
CN(C)CCCN1c2ccccc2Sc2ccccc21 | 0.10
CCN(CC)CC#CCOC(=O)C(O)(c1ccccc1)C1CCCCC1 (centres unmarked) | 49.68

Cn1c(=O)c2[nH]cnc2n(C)c1=O yielded k IAM of 0.12

CC(C(=O)O)c1cccc(C(=O)c2ccccc2)c1 (centres unmarked) yielded k IAM of 0.20

CC(C)Cc1ccc(C(C)C(=O)O)cc1 (centres unmarked) yielded k IAM of 0.86
